- Test Target: human somatostatin receptor subtype 2 (Homo sapiens, UniProt P30874)
- Sequence (P30874 whole entry): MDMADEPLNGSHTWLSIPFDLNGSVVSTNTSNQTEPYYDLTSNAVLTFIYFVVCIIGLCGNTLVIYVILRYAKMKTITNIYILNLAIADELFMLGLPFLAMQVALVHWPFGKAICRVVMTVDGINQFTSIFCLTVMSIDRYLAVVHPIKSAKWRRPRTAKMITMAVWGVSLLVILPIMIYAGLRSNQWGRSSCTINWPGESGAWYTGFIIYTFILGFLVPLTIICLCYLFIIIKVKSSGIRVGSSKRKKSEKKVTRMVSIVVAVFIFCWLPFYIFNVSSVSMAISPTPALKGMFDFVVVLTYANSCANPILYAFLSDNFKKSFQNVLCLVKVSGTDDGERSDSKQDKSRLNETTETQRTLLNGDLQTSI
- Test Description: cAMP assay for SST2R (inhibition of cAMP in CHO-K1 cells)
- Experimental Parameters: Table B; inhibition of cAMP via human SST2 receptor; read-out: SST2 potency
Parameter Measured: EC50

Use the examples below as a reference point.
INSERT INTO measurements (molecule, parameter_measured, value_measured) VALUES
  ('CCC1(NC(=O)c2cncc(-c3cc(C)cc(F)c3)c2N2CC[C@](C)(N)C2)CCC1', 'EC50', '0.1 to 1 µM'),
  ('C[C@H](NC(=O)c1cnc(C#N)c(-c2cc(F)cc(F)c2)c1N1CC[C@](N)(CC(F)F)C1)C1CC1', 'EC50', '> 1 µM'),
  ('COc1cc(C#N)cc(-c2cncc(C(=O)N[C@@H](C)C3CC3)c2N2CC[C@](C)(N)C2)c1', 'EC50', '0.1 to 1 µM'),
  ('Cc1ncc(C(=O)NC23CC(C2)C3)c(N2CC[C@](C)(N)C2)c1-c1cc(F)cc(F)c1', 'EC50', '> 1 µM'),
  ('N#Cc1ncc(C(=O)NC23CC(C2)C3)c(N2CC[C@@](N)(CO)C2)c1-c1cc(F)cc(F)c1', 'EC50', '0.1 to 1 µM'),
  ('C[C@]1(N)CCN(c2c(C(=O)NC3CCCCCC3)ccnc2-c2cc(F)cc(F)c2)C1', 'EC50', '> 1 µM'),
  ('COc1ncc(C(=O)N[C@@H](C)C(F)(F)F)c(N2CC[C@](C)(N)C2)c1-c1ccc2ncn(C)c2c1', 'EC50', '> 1 µM'),
  ('C[C@]1(N)CCN(c2c(C(=O)NC3CCCCC3)cncc2-c2cc(F)cc(F)c2)C1', 'EC50', '0.1 to 1 µM');

Below is a list of molecules. For each, state its recorded EC50.
1. CC(C)NC(=O)c1cnc(C#N)c(-c2cc(F)cc(F)c2)c1N1CC[C@](C)(N)C1
2. N#Cc1ncc(C(=O)NC(C2CC2)C2CC2)c(N2CC[C@H](N)C2)c1-c1cc(F)cc(F)c1
3. CCCCNC(=O)c1cnc(C#N)c(-c2ccnc(C(F)(F)F)c2)c1N1CC[C@](C)(N)C1
4. N[C@H]1CCN(c2c(C(=O)NC34CC(F)(C3)C4)cnc(C(F)(F)F)c2-c2cc(F)cc(F)c2)C1
5. COc1ncc(C(=O)N[C@@H](C)C(F)(F)F)c(N2CC[C@](C)(N)C2)c1-c1ccc(Cl)c(F)c1
6. Cc1cc(C)cc(-c2cncc(NC(=O)c3ccc(F)c(Cl)c3)c2N2CCC(CN)C2)c1 (centres unmarked) [reference compound]
7. COc1ncc(C(=O)N[C@@H](C)C2CC2)c(N2CC[C@](C)(N)C2)c1-c1cc(F)cc(Cl)c1
8. C[C@H](NC(=O)c1cncc(-c2cc(F)cc(F)c2)c1N1CC[C@](C)(N)C1)C1CC1

["0.1 to 1 µM", "> 1 µM", "> 1 µM", "> 1 µM", "0.1 to 1 µM", "< 0.01 µM", "0.01 to 0.1 µM", "0.01 to 0.1 µM"]

* * *

- Test Target: human somatostatin receptor subtype 2 (Homo sapiens, UniProt P30874)
- Test Description: cAMP assay for SST2R (inhibition of cAMP in CHO-K1 cells)
- Experimental Parameters: Table B; inhibition of cAMP via human SST2 receptor; read-out: SST2 potency
pEC50: −log10 of the molar value.
Give measured pEC50 for each item. Keep answers brief.

Below is a list of compounds. For each, state its recorded pEC50.
1. CCC(CC)NC(=O)c1cnc(C#N)c(-c2ccnc(OC)c2)c1N1CC[C@](C)(N)C1
2. C[C@H](NC(=O)c1ncc(Cl)c(-c2cc(F)cc(F)c2)c1N1CC[C@](C)(N)C1)C1CC1
3. N#Cc1ncc(C(=O)NC2CC(F)(F)C2)c(N2CC[C@H](N)C2)c1-c1cc(F)cc(F)c1
4. Cc1cccc2[nH]c(-c3cncc(C(=O)N4CCC(C5CC5)C4)c3N3CC[C@](C)(N)C3)nc12 (some centres unmarked)
5. COc1cc(C#N)cc(-c2c(C)ncc(C(=O)NC3CC(F)(F)C3)c2N2CC[C@](C)(N)C2)c1

["6.00 to 7.00", "< 6.00", "< 6.00", "6.00 to 7.00", "6.00 to 7.00"]

* * *

- Test Target: human somatostatin receptor subtype 2 (Homo sapiens, UniProt P30874)
- Test Description: cAMP assay for SST2R (inhibition of cAMP in CHO-K1 cells)
- Experimental Parameters: Table B; inhibition of cAMP via human SST2 receptor; read-out: SST2 potency
pEC50: −log10 of the molar value.
Parameter Measured: pEC50

INSERT INTO assay_data (compound, test_target, value_measured) VALUES
  ('C[C@]1(N)CCN(c2c(C(=O)NC34CC(F)(C3)C4)cnc(C(F)(F)F)c2-c2cc(F)cc(F)c2)C1', 'human somatostatin receptor subtype 2 (Homo sapiens, UniProt P30874)', '6.00 to 7.00');

Below is a list of compounds. For each, state its recorded pEC50.
1. Cc1ncc(C(=O)NC2CC(F)(F)C2)c(N2CC[C@](C)(N)C2)c1-c1cc(F)cc(OC(F)F)c1
2. Cc1ccc(F)c2[nH]c(-c3cncc(C(=O)N[C@@H](C)C(F)(F)F)c3N3CC[C@](C)(N)C3)nc12

6.00 to 7.00
7.00 to 8.00

* * *

Give measured pEC50 for each item. Keep answers brief.
- Test Target: human somatostatin receptor subtype 5 (Homo sapiens)
- Construct: expressed in transfected cells
- Sequence (P35346 whole entry): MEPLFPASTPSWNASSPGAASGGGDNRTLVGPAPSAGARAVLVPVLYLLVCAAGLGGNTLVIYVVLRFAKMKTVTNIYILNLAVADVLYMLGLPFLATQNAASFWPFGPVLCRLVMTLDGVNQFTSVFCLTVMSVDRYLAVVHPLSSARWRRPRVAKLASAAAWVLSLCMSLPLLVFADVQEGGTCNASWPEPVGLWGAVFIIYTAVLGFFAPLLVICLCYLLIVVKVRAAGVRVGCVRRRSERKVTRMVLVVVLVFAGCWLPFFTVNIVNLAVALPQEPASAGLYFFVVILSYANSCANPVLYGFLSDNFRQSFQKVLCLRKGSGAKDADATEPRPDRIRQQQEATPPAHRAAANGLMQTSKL
- Test Description: cAMP assay for SST5R (inhibition of cAMP in CHO-K1 cells)
- Assay type: cell-based
- Experimental Parameters: Table A; inhibition of cAMP via human SST5 receptor; read-out: SST5 potency
pEC50: −log10 of the molar value.

Use the examples below as a reference point.
INSERT INTO assay_data (compound, value_measured) VALUES
  ('C[C@H](NC(=O)c1cncc(-c2cccc3c2cnn3C)c1N1CC[C@](C)(N)C1)C1CC1', '> 8.00'),
  ('Cc1cccc2[nH]c(-c3cncc(C(=O)N4CCCC4C(C)C)c3N3CC[C@](C)(N)C3)nc12 (stereo partly shown)', '> 8.00'),
  ('Cc1cccc2[nH]c(-c3cncc(C(=O)NC4CC4)c3N3CC[C@](C)(N)C3)nc12', '7.00 to 8.00');

Query (compound): Cc1cccc2[nH]c(-c3cncc(C(=O)N4CC[C@H]5CCCC54)c3N3CC[C@](C)(N)C3)nc12 (stereo partly shown) ; field requested: pEC50
> 8.00

* * *

- Test Target: human somatostatin receptor subtype 2 (Homo sapiens)
- Test Description: cAMP assay for SST2R (inhibition of cAMP in CHO-K1 cells)
- Experimental Parameters: Table B; inhibition of cAMP via human SST2 receptor; read-out: SST2 potency
- Source text: General overview: All five SSTR subtypes are Gi coupled G-protein coupled receptors (GPCRs) that lead to decreases in intracellular cyclic AMP (cAMP) when activated by an agonist. Therefore, measurement of intracellular cAMP levels can be used to assess whether compounds of the invention are agonists of SSTR subtypes (John Kelly, Troy Stevens, W. Joseph Thompson, and Roland Seifert, Current Protocols in Pharmacology, 2005, 2.2.1-2.2). One example of an intracellular cAMP assay is described below. […]
Parameter Measured: EC50

Use the examples below as a reference point.
INSERT INTO assay_data (molecule, test_target, value_measured) VALUES
  ('C[C@H](NC(=O)c1cnc(C#N)c(-c2ccnc(C(F)(F)F)c2)c1N1CC[C@](C)(N)C1)C(F)(F)F', 'human somatostatin receptor subtype 2 (Homo sapiens)', '100 to 1000 nM'),
  ('C[C@]1(N)CCN(c2c(C(=O)N3C4CC5CC(C4)CC3C5)cncc2-c2nc3cccc(Cl)c3[nH]2)C1', 'human somatostatin receptor subtype 2 (Homo sapiens)', '100 to 1000 nM'),
  ('C[C@H](NC(=O)c1cnc(OCCO)c(-c2cc(F)cc(F)c2)c1N1CC[C@](C)(N)C1)C1CC1', 'human somatostatin receptor subtype 2 (Homo sapiens)', '100 to 1000 nM'),
  ('C[C@]1(N)CCN(c2c(C(=O)NC3CCC(F)(F)CC3)cnc(C#N)c2-c2cc(F)cc(F)c2)C1', 'human somatostatin receptor subtype 2 (Homo sapiens)', '100 to 1000 nM'),
  ('Cc1cc(C)cc(-c2cncc(C(=O)NC3CCCC(C)(C)C3)c2N2CC[C@](C)(N)C2)c1 (some centres unmarked)', 'human somatostatin receptor subtype 2 (Homo sapiens)', '> 1000 nM');

Below is a list of molecules. For each, state its recorded EC50.
1. CCC(CC)CNC(=O)c1cncc(-c2cc(F)cc(F)c2)c1N1CC[C@](C)(N)C1
2. CC1(C)CC(NC(=O)c2cnc(C#N)c(-c3cc(F)cc(F)c3)c2N2CC[C@](C)(N)C2)CCO1 (some centres unmarked)
3. C[C@H](NC(=O)c1cnc(OCCC(=O)O)c(-c2cc(F)cc(F)c2)c1N1CC[C@](C)(N)C1)C1CC1
4. C[C@H](NC(=O)c1cnc(OCC(F)F)c(-c2cc(F)cc(F)c2)c1N1CC[C@](C)(N)C1)C1CC1
5. C[C@]1(N)CCN(c2c(C(=O)NCc3ccon3)cnc(C#N)c2-c2cc(F)cc(F)c2)C1
6. CC(C)CNC(=O)c1cnc(C#N)c(-c2cc(F)cc(F)c2)c1N1CC[C@](C)(N)C1

1. 100 to 1000 nM
2. > 1000 nM
3. > 1000 nM
4. 10 to 100 nM
5. > 1000 nM
6. 100 to 1000 nM
